- Test Protocol: qHTS assay for small molecule disruptors of the mitochondrial membrane potential - cell viability (AID 720634); also: nearly all actives have a fitted effect of over 20% in size
- Cond: HepG2 viability, ATP luminescence (CellTiter-Glo), 1 h; series mostly up to 83.2 µM
Inconclusive results are not listed. Active and inactive are the calls of the source. Calls follow the shape of the full dose curve.
Possible outcomes: yes for active, no for inactive

Compound	Category
CC[C@H]1O[C@]2(CC[C@@H]1C)C[C@@H]1C[C@@H](C/C=C(\C)C[C@@H](C)/C=C/C=C3\CO[C@@H]4[C@H](O)C(C)=C[C@@H](C(=O)O1)[C@]34O)O2	yes
Cc1[nH]nc2c1N=C(c1ccccc1Cl)c1cc([N+](=O)[O-])ccc1N2	no
NC(=NCCCCCCN=C(N)/N=C(\N)Nc1ccc(Cl)cc1)/N=C(\N)Nc1ccc(Cl)cc1	no
CC1=NC(C)OC1C (stereo not given)	no
NC(=O)N1C(=O)C(C(=O)c2cc(Cl)cs2)c2cc(F)c(Cl)cc21 (stereo not given)	yes
Oc1cccc(-c2c3nc(c(-c4cccc(O)c4)c4ccc([nH]4)c(-c4cccc(O)c4)c4nc(c(-c5cccc(O)c5)c5ccc2[nH]5)CC4)C=C3)c1	no
COC(=O)C1=C(C)NC(C)=C(C(=O)OCC(C)C)C1c1ccccc1[N+](=O)[O-] (stereo not given)	no
Nc1c2ccccc2nc2ccccc12	no
O=C(c1ccc(F)cc1)C1CCN(CCn2c(=O)[nH]c3ccccc3c2=O)CC1	no
O=c1cc(-c2ccc(O)cc2)oc2cc(O)cc(O)c12	yes
COc1ccc(-c2ccc3cc(C(=O)O)ccc3c2)cc1C12CC3CC(CC(C3)C1)C2	no
O=C1c2ccccc2Cc2ccccc21	no
C[C@]12CCC(=O)C=C1CC[C@@H]1[C@@H]2[C@@H](O)C[C@@]2(C)[C@H]1CC[C@]2(O)C(=O)COC(=O)CCC(=O)O	no
CCC1=C[C@@H]2CN(C1)Cc1c([nH]c3ccccc13)[C@@](C(=O)OC)(c1cc3c(cc1OC)N(C)[C@H]1[C@@](O)(C(=O)OC)[C@H](OC(C)=O)[C@]4(CC)C=CCN5CC[C@]31[C@@H]54)C2	no
CC[C@@]1(O)C(=O)OCc2c1cc1n(c2=O)Cc2cc3c(CN(C)C)c(O)ccc3nc2-1	no
Clc1ccc2n[nH]nc2c1	no
Nc1ccc2cc(S(=O)(=O)O)cc(O)c2c1N=Nc1ccccc1C(F)(F)F	no
COc1c(C)c2c(c(O)c1C/C=C(\C)CCC(=O)O)C(=O)OC2	no
Cc1cccc(CN2CCN(C(c3ccccc3)c3ccc(Cl)cc3)CC2)c1 (stereo not given)	no
Cc1cccc2c1cc1ccc3cccc4ccc2c1c34	no
COc1cc(-c2ccc(N=C=O)c(OC)c2)ccc1N=C=O	no
Oc1c(Cl)cc(Cl)c2cccnc12	no
N/C(=N\N=C\c1ccc(Cl)cc1)N/N=C/c1ccc(Cl)cc1	no
C[C@@H]1C[C@H]2[C@@H]3CCC4=CC(=O)C=C[C@]4(C)[C@@]3(Cl)[C@@H](O)C[C@]2(C)[C@@]1(OC(=O)c1ccco1)C(=O)CCl	no
CSc1ccc(C(=O)c2[nH]c(=O)[nH]c2C)cc1	no
CC(NN)c1ccccc1 (stereo not given)	no
N=C1N=C(N)c2cc3ccccc3cc21	no
CCCCCCCC/C=C/CCCCCCCC1=NCCN1CCO	yes
CCC(C)(C)C1CCCCC1OC(C)=O (stereo not given)	no
Oc1cccc2cc3cccc(O)c3c(O)c12	no
O=c1c(-c2ccccc2)c1-c1ccccc1	no
CCCCCCCCS(=O)C(C)Cc1ccc2c(c1)OCO2 (stereo not given)	no
Cc1ccc(-n2nc(C(C)(C)C)cc2NC(=O)Nc2ccc(OCCN3CCOCC3)c3ccccc23)cc1	no
NC(=O)CC[C@@H]1NC(=O)[C@H](Cc2ccccc2)NC(=O)[C@H](Cc2ccc(O)cc2)NC(=O)CCSSC[C@@H](C(=O)N2CCC[C@H]2C(=O)N[C@@H](CCCN=C(N)N)C(=O)NCC(N)=O)NC(=O)[C@H](CC(N)=O)NC1=O	no
O=[N+]([O-])c1cc(Cl)c(Cl)c(Cl)c1Cl	no
Cc1onc(-c2c(Cl)cccc2Cl)c1C(=O)N[C@@H]1C(=O)N2[C@@H]1SC(C)(C)[C@@H]2C(=O)O	no
Cc1c(C)c2c(c(C)c1O)CCC(C)(COc1ccc(CC3SC(=O)NC3=O)cc1)O2 (stereo not given)	no
CCN1/C(=C/C=C/c2sc3ccccc3[n+]2CC)Sc2ccccc21	no
Fc1ccc([C@@H]2CCNC[C@H]2COc2ccc3c(c2)OCO3)cc1	no
O=C(O)c1c(Cl)cccc1Cl	no

* * *

- Test Protocol: qHTS assay to identify small molecule antagonists of the sonic hedgehog signaling (Shh) pathway (AID 1259369); also: nearly all actives have a fitted effect of over 45% in size
- Cond: NIH/3T3 Gli1-Luc reporter, Shh antagonist, luminescence 24 h; series mostly up to 92.4 µM
- From the text: U.S. Tox21 Program National Center for Advancing Translational Sciences [NCATS] NIH Chemical Genomics Center [NCGC] U.S. Environmental Protection Agency [EPA] National Institutes of Environmental Health Sciences [NIEHS] National Toxicology Program [NTP] U.S. Food and Drug Administration [FDA] Tox21 Assay Overview: The sonic hedgehog (Shh) pathway is essential for normal embryonic development. Dysregulation of the Shh pathway can cause severe developmental defects in organs. […]
Results filed as inconclusive are left out. Activity calls are given as the source filed them. Calls come from the whole dose curve.
Labels: True (active), False (inactive)

                                   compound  category
0          O=C1CCCc2c1cc1ccc3cccc4ccc2c1c34     False
1  COC(=O)C1=C(C)NC(C)=C(C(=O)OCCc2ccc(N3CCN(C(c4ccccc4)c4ccccc4)CC3)cc2)C1c1cccc([N+](=O)[O-])c1 (stereo not drawn)     False
2  CCCCCCCC(=O)[O-].CCCCCCCC(=O)[O-].[Zn+2]     False
3  CC(C)=CCOc1ccc(/C=C/C(=O)c2ccc(OCC=C(C)C)cc2OCC(=O)O)cc1     False
4  CN1CCC(Nc2ncc3ncnc(Nc4ccc(F)c(Cl)c4)c3n2)CC1      True
5  CCCCCCCCCCCCCCCC[N+](C)(C)CCN(Cc1ccc(OC)cc1)c1ncccn1      True
6                    C[n+]1ccn(Cc2ccccc2)c1     False
7  CCC(C)Nc1ccc(NC(C)CC)cc1 (stereo not drawn)      True

* * *

- Test Protocol: qHTS assay to identify small molecule antagonists of the estrogen related receptor signaling pathway with the pleiotropic PPARgamma coactivator (PGC) from Tox21 10K library (AID 1224841); also: actives are mostly falling curves and most rising ones were filed inactive; nearly all actives have a fitted effect of over 50% in size
- Cond: PGC/ERR reporter cell line, ONE-Glo luciferase, 18 h; series mostly up to 92.4 µM
Results filed as inconclusive are left out. Active and inactive are the calls of the source. No rule for the calls is given here.
Outcomes: Y for active, N for inactive

                                    compound  category
 0  CC(C)n1nc(-c2cc3cc(O)ccc3[nH]2)c2c(N)ncnc21         Y
 1  CC[C@@]1(O)C(=O)OCc2c1cc1n(c2=O)Cc2c-1nc1ccccc1c2/C=N/OC(C)(C)C         Y
 2  O=C(NOCC1CC1)c1ccc(F)c(F)c1Nc1ccc(I)cc1Cl         Y
 3  C[C@H](CCC(=O)O)[C@H]1CC[C@H]2[C@@H]3CC[C@@H]4C[C@H](O)CC[C@]4(C)[C@H]3CC[C@]12C         Y
 4  OC1(c2ccc(Cl)c(C(F)(F)F)c2)CCN(CCCC(c2ccc(F)cc2)c2ccc(F)cc2)CC1         Y
 5  CCCN(CCC)c1c([N+](=O)[O-])cc(C(F)(F)F)c(N)c1[N+](=O)[O-]         Y
 6  COc1cc(/C=C/C(=O)O[C@H]2CC[C@]34C[C@]35CC[C@]3(C)[C@@H]([C@H](C)CCC=C(C)C)CC[C@@]3(C)[C@@H]5CC[C@H]4C2(C)C)ccc1O         N
 7  Cc1onc(-c2c(Cl)cccc2Cl)c1C(=O)N[C@@H]1C(=O)N2[C@@H]1SC(C)(C)[C@@H]2C(=O)O         N
 8  C=C(C)C(=O)OCC(O)COc1ccc(C(C)(C)c2ccc(OCC(O)COC(=O)C(=C)C)cc2)cc1 (stereo not given)         Y
 9  COc1ccc(CN2CCN(C(c3ccc(F)cc3)c3ccc(F)cc3)CC2)c(OC)c1OC         Y
10  CCCC(c1cc(C(C)(C)C)c(O)cc1C)c1cc(C(C)(C)C)c(O)cc1C         Y
11           Cc1cccc2c1cc1ccc3cccc4ccc2c1c34         N
12  CC(C)(C)C(=O)OCOC(=O)[C@@H]1N2C(=O)[C@@H](NC(=O)[C@H](N)c3ccccc3)[C@H]2SC1(C)C         N
13  CCCC1O[C@@H]2C[C@H]3[C@@H]4CCC5=CC(=O)C=C[C@]5(C)[C@H]4[C@@H](O)C[C@]3(C)[C@]2(C(=O)CO)O1 (stereo not given in full)         Y
14                        OCc1c[nH]c2ccccc12         Y
15                O=C(Nc1cccc(Cl)c1)OCC#CCCl         Y
16                             CCCCCCCCCCC=O         N
17             CCCCCCCCCCCCCCCCCC[N+](C)(C)C         Y
18              N#CC1(c2ccc(F)cc2)CCC(=O)CC1         N
19                        [Cl][Au]([Cl])[Cl]         Y
